# Measurement target: FimH-CRD (Escherichia coli)
# Construct: The first 177 amino acids of the FimH protein; thrombin tag (printed as 'fusion protein with thrombin') (cleaved yes); made in house; host or cells: bacteria (pET21b plasmid)
# Sequence (P08191 22-177): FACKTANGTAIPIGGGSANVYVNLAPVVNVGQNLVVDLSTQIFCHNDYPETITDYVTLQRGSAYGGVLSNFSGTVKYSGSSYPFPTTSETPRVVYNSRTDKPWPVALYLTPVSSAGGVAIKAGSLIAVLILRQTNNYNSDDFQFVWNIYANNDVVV
# Assay name: Competitive binding assay by fluorescence polarization, assay 2 (compounds prepared by robotics, plates frozen and thawed)

Compound	Kd
COC(=O)c1cccc(CCc2cccc([C@H]3O[C@H](CO)[C@@H](O)[C@H](O)[C@@H]3O)c2)c1 [Compound 101]	12.9 nM
Cc1c(-c2ccc(S(C)(=O)=O)cc2)cccc1[C@H]1O[C@H](CO)[C@@H](O)[C@H](O)[C@@H]1O [Compound 109]	14.4 nM
CC[C@H](C)COc1ccc(C2O[C@H](CO)[C@@H](O)[C@H](O)[C@@H]2O)cc1 (stereo partly shown) [Compound 231]	8.9 nM
Cc1nnc(-c2ccc(-c3cccc([C@H]4O[C@H](CO)[C@@H](O)[C@H](O)[C@@H]4O)c3F)cc2)o1 [Compound 106]	23.4 nM
COC(=O)c1cccc(COc2ccc(C3O[C@H](CO)[C@@H](O)[C@H](O)[C@@H]3O)cc2)c1 (stereo partly shown) [Compound 246]	23.6 nM
COC(=O)CCCOc1ccc(C2O[C@H](CO)[C@@H](O)[C@H](O)[C@@H]2O)cc1 (stereo partly shown) [Compound 243]	5.8 nM
Cc1nc(-c2ccc(-c3cccc([C@H]4O[C@H](CO)[C@@H](O)[C@H](O)[C@@H]4O)c3)cc2)no1 [Compound 175]	10.2 nM
CN(C)Cc1nnc(-c2ccc(-c3cccc([C@H]4O[C@H](CO)[C@@H](O)[C@H](O)[C@@H]4O)c3)cc2)o1 [Compound 113]	20.7 nM
Cc1nnc(-c2ccc(-c3cccc([C@H]4O[C@H](CO)[C@@H](O)[C@H](O)[C@@H]4O)c3)cc2)o1 [Compound 48]	8.5 nM
COC(=O)c1cc(C#Cc2cc([C@H]3O[C@H](CO)[C@@H](O)[C@H](O)[C@@H]3O)ccc2OC)cc(C(=O)OC)c1 [Compound 82]	23.2 nM
CNC(=O)c1cccc(Oc2ccc(OC(F)(F)F)c([C@H]3O[C@H](CO)[C@@H](O)[C@H](O)[C@@H]3O)c2)c1 [Compound 201]	103 nM
Cc1nc(-c2ccc(-c3cccc([C@H]4O[C@H](CO)[C@@H](O)[C@H](O)[C@@H]4O)c3)cc2)cs1 [Compound 177]	12.1 nM
COCCOCCNC(=O)Cc1nnc(-c2ccc(-c3cccc([C@H]4O[C@H](CO)[C@@H](O)[C@H](O)[C@@H]4O)c3)cc2)o1 [Compound 182]	20.2 nM
CNC(=O)c1cccc(C#Cc2cccc([C@H]3O[C@H](CO)[C@@H](O)[C@H](O)[C@@H]3O)c2)c1 [Compound 93]	7.5 nM
Cn1ccc(-c2ccc(-c3cccc([C@H]4O[C@H](CO)[C@@H](O)[C@H](O)[C@@H]4O)c3)cc2)n1 [Compound 122]	27.6 nM
N#Cc1ccc(-c2cccc([C@H]3O[C@H](CO)[C@@H](O)[C@H](O)[C@@H]3O)c2)cc1 [Compound 22]	14.2 nM
CNC(=O)c1ccc2[nH]c(-c3cccc([C@H]4O[C@H](CO)[C@@H](O)[C@H](O)[C@@H]4O)c3)nc2c1 [Compound 172]	530 nM
CNC(=O)c1cccc(Oc2cc([C@H]3O[C@H](CO)[C@@H](O)[C@H](O)[C@@H]3O)ccc2F)c1 [Compound 203]	9.2 nM
OC[C@H]1O[C@H](c2cccc(Br)c2)[C@@H](O)[C@@H](O)[C@@H]1O [Intermediate C]	27 nM
Cc1nnc(-c2ccc(-c3cccc([C@H]4O[C@H](CO)[C@@H](O)[C@H](O)[C@@H]4O)c3)cc2)s1 [Compound 176]	21.1 nM
OC[C@H]1O[C@H](c2cccc(COc3ccccc3)c2)[C@@H](O)[C@@H](O)[C@@H]1O [Compound 262]	26.6 nM
OC[C@H]1OC(c2cccc(OCc3cc(Cl)cc(Cl)c3)c2)[C@@H](O)[C@@H](O)[C@@H]1O (stereo partly shown) [Compound 226]	32.1 nM
OC[C@H]1OC(c2ccc(OCCc3cccc(F)c3)cc2)[C@@H](O)[C@@H](O)[C@@H]1O (stereo partly shown) [Compound 238]	9.7 nM
OC[C@H]1OC(c2cccc(OCC3CCO3)c2)[C@@H](O)[C@@H](O)[C@@H]1O (stereo partly shown) [Compound 210]	24.2 nM
C#Cc1cccc([C@H]2O[C@H](CO)[C@@H](O)[C@H](O)[C@@H]2O)c1 [Compound 73]	33.8 nM
O=C(c1ccccc1)c1ccc2[nH]c(-c3cccc([C@H]4O[C@H](CO)[C@@H](O)[C@H](O)[C@@H]4O)c3)nc2c1 [Compound 168]	42.5 nM
COc1cc(-c2nnc(C)o2)ccc1-c1cccc([C@H]2O[C@H](CO)[C@@H](O)[C@H](O)[C@@H]2O)c1 [Compound 128]	74.7 nM
O=C(COc1cccc(C2O[C@H](CO)[C@@H](O)[C@H](O)[C@@H]2O)c1)C1CCCCC1 (stereo partly shown) [Compound 218]	8.7 nM
